Data origin: ChEMBL document CHEMBL1145986

System under test: Protein farnesyltransferase (Homo sapiens, UniProt P49354+P49356)
Procedure details: Concentration required to inhibit recombinant human farnesyltransferase (FTase) catalyzed incorporation of [3H]FPP into recombinant Ras-CVIM.
pIC50: −log10 of the molar value.
Property measured: pIC50

>>> value_observed("CN1CCCC[C@@](CCC2CC2)(c2cccc(Oc3cc([C@](C)(N)c4cncn4C)ccc3C#N)c2)C1=O")
9.74
>>> value_observed("CN1CCCC[C@@](CC2CC2)(c2cccc(Oc3cc([C@](C)(N)c4cncn4C)ccc3C#N)c2)C1=O")
9.52
>>> value_observed("CC[C@]1(c2cccc(Oc3cc([C@](C)(N)c4cncn4C)ccc3C#N)c2)CCCCN(C)C1=O (stereo in doubt)")
8.82

1 = CCC1(c2cccc(Oc3cc(Cn4ccnc4)ccc3C#N)c2)CCCCNC1=O (configuration not stated)
2 = N#Cc1ccc(Cn2ccnc2)cc1Oc1cccc(C2CCCCNC2=O)c1 (configuration not stated)
3 = CCC1(c2cccc(Oc3cc(Cn4ccnc4)ccc3C#N)c2)CCCCNC1 (configuration not stated)
4 = CC[C@]1(c2cccc(Oc3cc([C@@](C)(N)c4cncn4C)ccc3C#N)c2)CCCCN(C)C1=O
Query block: Sort these compounds on pIC50 so the largest reading comes first. Output spec: a listing of the labels in the requested order.
Result block: 1, 4, 2, 3
(1: 8.89, 4: 8.12, 2: 7.39, 3: 7.00)

###

System under test: Protein farnesyltransferase (Homo sapiens, UniProt P49354+P49356)
Procedure details: Inhibition of hDJ2 protein farnesylation
pEC50: −log10 of the molar value.
Property measured: pEC50

a = CN1CCCC[C@@](C)(c2cccc(Oc3cc([C@](C)(N)c4cncn4C)ccc3C#N)c2)C1=O
b = CCCC[C@@]1(c2cccc(Oc3cc([C@](C)(N)c4cncn4C)ccc3C#N)c2)CCCCN(C)C1=O
c = CC[C@]1(c2cccc(Oc3cc([C@](C)(N)c4cncn4C)ccc3C#N)c2)CCCCN(C)C1=O (stereo in doubt)
Query block: Order the entries by their reported pEC50, beginning at the minimum. Please express your ranking as an ordered list of the labels.
Result block: a, c, b
(a: 7.59, c: 7.96, b: 8.40)

A = CN1CCCC[C@@](CCC(F)(F)F)(c2cccc(Oc3cc([C@](C)(N)c4cncn4C)ccc3C#N)c2)C1=O
B = CCC[C@@]1(c2cccc(Oc3cc([C@](C)(N)c4cncn4C)ccc3C#N)c2)CCCCN(C)C1=O
Query block: Among A and B , whose measured pEC50 is the smaller figure? Reply with the label of the item you choose.
Result block: A
(A: 8.51, B: 9.05)

###

System under test: Geranylgeranyl transferase type I (Homo sapiens, UniProt P49354+P53609)
Procedure details: Concentration required to inhibit recombinant human geranylgeranyl transferase type I (GGTase-I) catalyzed incorporation of [3H]GGPP to the C-terminus of human K-Ras.
Property measured: IC50 (nM)

Below are worked cases with known answers.
>>> value_observed("CN1CCCC[C@@](CCC2CC2)(c2cccc(Oc3cc([C@](C)(N)c4cncn4C)ccc3C#N)c2)C1=O")
0.81
>>> value_observed("CCC1(c2cccc(Oc3cc(Cn4ccnc4)ccc3C#N)c2)CCCCNC1=O (stereo not drawn)")
20
>>> value_observed("CC[C@]1(c2cccc(Oc3cc(Cn4ccnc4)ccc3C#N)c2)CCCCN(C)C1=O")
25
>>> value_observed("CN1CCCC[C@@](CC2CC2)(c2cccc(Oc3cc([C@](C)(N)c4cncn4C)ccc3C#N)c2)C1=O")
2.1
>>> value_observed("CN1CCCCC(c2cccc(Oc3cc(Cn4ccnc4)ccc3C#N)c2)C1=O (stereo not drawn)")
560
>>> value_observed("CCCC[C@@]1(c2cccc(Oc3cc([C@](C)(N)c4cncn4C)ccc3C#N)c2)CCCCN(C)C1=O")
1.4
>>> value_observed("CCC1(c2cccc(Oc3cc(C(C)(N)c4cncn4C)ccc3C#N)c2)CCCCN(C)C1=O (stereo not drawn)")
5.1
>>> value_observed("CCC1(c2cccc(Oc3cc(C(N)c4cncn4C)ccc3C#N)c2)CCCCN(C)C1=O (stereo not drawn)")
8

P = CC[C@]1(c2cccc(Oc3cc([C@](C)(N)c4cncn4C)ccc3C#N)c2)CCCCN(C)C1=O (stereo in doubt)
Q = CN1CCCC[C@@](C)(c2cccc(Oc3cc([C@](C)(N)c4cncn4C)ccc3C#N)c2)C1=O
Query block: Lowest IC50? choose P or Q Answer = label.
Result block: P

I = CC[C@@]1(c2cccc(Oc3cc(Cn4ccnc4)ccc3C#N)c2)CCCCN(C)C1=O
II = N#Cc1ccc(Cn2ccnc2)cc1Oc1cccc(C2CCCCNC2=O)c1 (stereo not drawn)
Query block: Between I and II , whose measured IC50 reads higher? Output the label that corresponds to your choice.
Result block: II
(II: 1200 nM, I: 5.8 nM)

P = CCC1(c2cccc(Oc3cc(C(=O)c4cncn4C)ccc3C#N)c2)CCCCN(C)C1=O (stereo not drawn)
Q = CCC1(c2cccc(Oc3cc(Cc4cnc[nH]4)ccc3C#N)c2)CCCCN(C)C1=O (stereo not drawn)
Query block: // pick min by IC50: P , Q // return label of chosen record
Result block: Q
(Q: 12 nM, P: 10000 nM)
